# EXPERIMENTAL_SYSTEM: T1, 10E8-GT10.2 epitope scaffold (designed scaffold 10E8-GT10.2 with …, N-linked glycosylation sites added (positions not given))
# T1 chain: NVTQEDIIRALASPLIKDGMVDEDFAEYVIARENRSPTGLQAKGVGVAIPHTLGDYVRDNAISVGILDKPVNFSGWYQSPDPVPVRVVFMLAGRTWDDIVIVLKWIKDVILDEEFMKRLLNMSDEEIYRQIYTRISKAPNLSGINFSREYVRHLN
Recorded pKd by entry
// scale note: pKd = -log10(conc_M); give the bare number

Here is how some binders turned out for pKd.
MPER18_d21_45.2_v55_m15_D04 (antibody, V domains shown) VH: QVQLQESGPGLVKPSETLSLTCTVSGGSISGYYWSWIRQPPGKGLEWIGYIYYSGSTNYNPSLKSRVTISVDTSKNQFSLKLSSVTAADTAVYYCAREPPYYDFWSGLSMGVGAFDFWGQGTMVTVSS VL: DVLMTQSPLSLPVSLGDQASISCRSSQSIVHSNGNTYLEWYLQKPGQSPKLLIYKVSNRFSGVPDRFSGSGSGTDFTLRISRVEAEDLGVYYCFQGSHVPCTFGGGTKLEIK
7.66
NHP-10E8_MPER-GT10v55_W3-18 (antibody, V domains shown) VH: EVQLVESGGGLVQPGGSLRLSCAASGFTFSDYAMDWVRQAPGKGLEWVGYIRSKDYGGTAEYAASVKGRLTISRDDSKNTAYLQMNSLKTEDTAVYYCSRGRGYYHFWSGYYTPYNRFDVWGPGVLVTVSS VL: DVVMTQSPLSLPVTPGQPASISCRSSQSLVHSDGKTYLNWLQQKPGQPPRRLIYQVSNRDSGVPDRFSGSGAGTDFTLKISRVEAEDVGVYYCVQGTNVPWTFGQGTKVEIK
8.93
MPER18_d21_45.2_v55_22 (antibody, V domains shown) VH: QVQLQESGPGLVKPSETLSLTCTVSGGSISSYYWSWIRQPPGKGLEWIGYIYYSGSTNYNPSLKSRVTISVDTSKNQFSLKLSSVTAADTAVYYCAREPPYYDFWGGLFMGVGAFDIWGQGTMVTVSS VL: DVLMTQTPLSLPVSLGDQASISCRSSQSIVHSNGNTFLEWYLQKPGQSPNLLIYRVSNRLSGVPDRFSGSGSGTDFTLKISRVEAEDLGVYYCFQGSHVPWTFGGGTKLEIK
8.54
MPER18_d21_45.1_v55_m3_D12 (antibody, V domains shown) VH: QVQLQQSGAELMKPGASVILSCKATGYTFTGYWIEWVKLRPGHGLEWIGEILPGNSSTKYNEKFKGKATFTADTSSNTANMQLSSLTTEDSAIYYCARRWNDYDGVAWFGYWGQGTLVSVSA VL: DIQMTQSPASLSASVGETVTITCRASGNIHNYLAWYQQKQGKSPQLLVYSAKTLADGVPSRFSGSGSGTQYSLKINSLQPEDFGSYYCQHFWSTPYTFGGGTKLEIK
5.90
NHP-Comp_MPER-GT10v55_W21-07 (antibody, V domains shown) VH: EVQLVESGGGLAKPGGSLRLSCAASGFTFSSYWMNWVRQTPGKGLEWISAINSGGGSTYYADSVKGRFTISRDNSKNTLSLQMNSLRAEDTAVYYCAKGYGLDSWGQGVVVTVSS VL: QAAPTQPPSVSGSPGQSVTISCTGTSSDIGYYNAVSWYQQHPGKAPKLMIYEVSKRPSGVSDRFSGSKSGNTASLTISGLQAEDEADYYCSSYAGSNTFIFGAGTRLTV
5.26

Recorded result, NHP-Comp_MPER-GT10v55_W26-08 (antibody, V domains shown) VH: QVTLKESGPALVKPTQTLTLTCTFSGFSISTTGTGVGWIRQPPGKALEWLATISWNDSKYYSTSLKSRLTISKDTSKNQVVLTFTNMDPVDTATYSCARVLQPTITTTNRFDVWGPGVLVTVSS VL: SYDLTQPPSVSVSPGQTARITCGGDNIGSKYVHWYQQKPPQAPVLVIYYDTERPSGIPERFSGSKSGNTATLTISGVEAGDEADYYCQVWDSSSDHNVFGSGTKLTV , pKd: 8.66

Recorded result, NHP-10E8_MPER-GT10v55_W10-12 (antibody, V domains shown) VH: EVHLVESGGGLVQPGGSLRLSCAASGFTFSDYAMDWVRQAPGKGLEWVGFIGSKDYGGTVEYAASVKGRFTISRDDLKNTAYLQMSRLKTEDTAVYYCTRSKTCYSFWSGYYPHYGLDSWGQGVVVTVSS VL: QSVLTQPPSVSGDPGQRVTISCTGNSSNIGGFDVYWYQLLPGTAPKLLIYENTKRPSGISDRFSGSKSGTSASLTITGLQSEDEAEYYCETWDNSLNGRLFGGGTRLTV , pKd: 6.12

Recorded result, MPER18_d21_45.2_v55_m15_C11 (antibody, V domains shown) VH: QVQLQESGPGLVKPSETLSLTCTVSGGSISSYYWNWIRQPPGKGLEWIGYIFYSGTTNYNPSLKSRVTISVDTSKNQFSLKVRSVTAADTAVYYCAREPPYYDFWSGLSMGVGSFDIWGQGTMVTVSS VL: DIVMTQSPLSLPVSLGDQASISCRSSQTIVYSSGYTYLEWYLQKPGQSPKLLIYKVSNRFSGVPDRFSGSGSGTDFTLKISRVEAEDLGVYFCFQGSHVPWTFGGGTKLEIK , pKd: 8.16

Recorded result, MPER18_d21_45.1_v55_m3_F02 (antibody, V domains shown) VH: QVQLKQSGPGLVQPSQSLSITCTVSGFSLTSNGVHWVRQSPGKGLDWLGVIWTGGSTDYNTTFLSRLSISKDNSKSQVFFKMNSLQADDTAIYYCARGGGYYEDYAMDYWGQGTSVTVSS VL: DIQMTQSPASLSASVGETVTITCRASGNIHNYLAWYQQKQGKSPQLLVYNAKTLADGVPSRFSGSGSGTQYSLKINSLQPEDFGSYCCQHFWSTPYTFGGGTKLEIR , pKd: 7.02

Recorded result, MPER18_d21_45.2_v55_24 (antibody, V domains shown) VH: QVQLQESGPGLVKPSETLSLTCTVSGGSISSYYWSWIRQPPGKGLEWIGYIYYSGSTNYNPSLKSRVTISVDTSKNQFSLKLSSVTAADTAVYYCAREPPYYDFWSGLSMGVGAFDIWGQGTLVTVSS VL: DVLLTQSPLALPVSLGDQASISCRSSQSIVHSNGYTYLEWYLQKPGQSPKLLVYKVSNRFSGVPDRFSGSGSGTDFTLKISRVETEDLGVYYCFQGSHVPYTFGGGTKLEIK , pKd: 9.60
